The following binders are listed with their measured Neut IC50 subtype B values.
target: RSV F protein of subtype B (18537) on recombinant mKate-RSV (respiratory syncytial virus subtype B …, UniProt P13843 26-574); assay: cell-based or functional assay

{"binder": "ADI-18989 (antibody, V domains shown, full-length IgG) VH: EVQLVESGGGLVQPGGSLRLSCAASGFSFNTYSMNWVRQAPGKGLEWLSFISSSSHTLYYADSVKGRFTVFRDNAKHSLFLQMNGLRDEDTAVYFCARSLGSGNYDNEDQTFYYYYGMDVWGQGTTVTVSS VL: ETTLTQSPLSLPVTPGEPASISCRSSQSLLFHSNGHNYLDWYLQKPGQSPQLLIHLGSNRASGVPDRFSGSGSGTDFTLKISRVEPEDVGVYYCMQALQTPYTFGQGTKVEIK", "Neut IC50 subtype B": "> 10 µg/mL"}
{"binder": "ADI-18978 (antibody, V domains shown) VH: EVQLVESGGGVVQPGRSLRLSCEASGFTFSSFSMHWVRQAPGKGLEWVAVILYDGSNQYYADSVKGRFTISRDNSKNTLYLQMNTLRAEDTAMYYCAKSSSSHVNSRQDKWGQGTLVTVSS VL: EIVLTQSPSTLSASVGDRVTITCRASQSISRWLAWYQQKPGEAPKLLIHTASTLESGVPSRFSGSGSGTEFTLTINSLQPDDLATYYCQQYYNWWTFGQGTKVEIK", "Neut IC50 subtype B": "> 10 µg/mL"}
{"binder": "ADI-19013 (antibody, V domains shown, full-length IgG; also called Antibody Number 361) VH: QVQLVQSGAEVKKPGESLKISCKGSGYSFSSYWIGWVRQMPGKGLEWMGIIYPGDSDTRYSPSLQGQVTISGDKSISTAFLQWSSLKASDTAMYYCARPMTTQEGFDLWGQGTMVTVSS VL: DIRLTQSPSSVSASVGDRVTITCRASQGISDWLAWYQQKPGKAPKLLIYAASSLQSGVPSRFSGSGSGTDFTLTISSLQPEDFATYYCQQTNSFLPLTFGGGTKVDIK", "Neut IC50 subtype B": "> 10 µg/mL"}
